Attribution: patent US9878982B2

- System: isoniazide-resistant Mycobacterium tuberculosis strains (rINH)
- MEASUREMENT_DESCRIPTION: microbe, parasite or virus in culture
- Assay type: cell-based
- PROTOCOL_CONDITIONS: Mycobacterium tuberculosis, read-out: MABA MIC vs. rINH, isoniazide-resistant strain; two values per compound
As shown below, each of these molecules has a reported MIC value.
Respond numerically; units are µM and should not be typed.

Consider the worked cases shown below.
{"columns": ["MOLECULE", "PROPERTY", "REPORTED_VALUE"],
 "data": [
  ["COc1ncc(-c2ccc(Cl)cc2)cc1C(c1ccccc1)C(O)(CCN(C)C)c1cccc2ccccc12 (stereo not drawn)", "MIC", 0.11],
  ["COc1ncc(-c2ccccc2)cc1C(c1ccccc1)C(O)(CCN(C)C)c1cccc2ccccc12 (stereo not drawn)", "MIC", 0.47],
  ["COc1ncc(-c2ccc(Br)cc2)cc1C(c1ccccc1)C(O)(CCN(C)C)c1cccc2ccccc12 (stereo not drawn)", "MIC", 0.22]
]}

Request: // Input: COc1nc2ccc(Br)cc2cc1[C@@H](c1ccccc1)[C@@](O)(CCN(C)C)c1cccc2ccccc12 [Bedaquiline, reference compound] . Output its MIC only.
Result: 0.07

###

Catalogue of MABA MIC vs. rINH readings, one per entry.
- System: isoniazide-resistant Mycobacterium tuberculosis strains (rINH)
- MEASUREMENT_DESCRIPTION: microbe, parasite or virus in culture
- Format: cell-based
- PROTOCOL_CONDITIONS: isoniazide-resistant strain; two values per compound
Note: unit µM is implicit; provide only the numeric part.

{"columns": ["MOLECULE", "MABA MIC vs. rINH, µM"],
 "data": [
  ["COc1ncc(-c2ccc(Br)cc2)cc1C(c1ccccc1)C(O)(CCN(C)C)c1cccc2ccccc12 (stereo not shown)", 0.12]
]}

Request: Please report MABA MIC vs. rINH with isoniazide-resistant Mycobacterium tuberculosis strains (rINH) for item COc1ncc(-c2ccc(Cl)cc2)cc1C(c1ccccc1)C(O)(CCN(C)C)c1cccc2ccccc12 (stereo not shown) .
Result: 0.12

Request: # assay system isoniazide-resistant Mycobacterium tuberculosis strains (rINH): give MABA MIC vs. rINH of COc1ncc(-c2ccccc2)cc1C(c1ccccc1)C(O)(CCN(C)C)c1cccc2ccccc12 (stereo not shown)
Result: 0.44

Request: Tell me MABA MIC vs. rINH of COc1nc2ccc(Br)cc2cc1[C@@H](c1ccccc1)[C@@](O)(CCN(C)C)c1cccc2ccccc12 [Bedaquiline, reference compound] when tested on isoniazide-resistant Mycobacterium tuberculosis strains (rINH).
Result: 0.09

###

- Test system: rifampicin-resistant M. tuberculosis strain (rRMP)
- MEASUREMENT_DESCRIPTION: microbe, parasite or virus in culture
- Format: cell-based, Mycobacterium tuberculosis
- PROTOCOL_CONDITIONS: Mycobacterium tuberculosis, read-out: MABA MIC vs. rRMP, rifampicin-resistant M. tuberculosis strain; two values per compound
In plain terms, low MIC, meaning strictly below 0.2 µM, gives Met, and everything else gives Not met.

{"columns": ["MOLECULE", "CLASS_ASSIGNMENT"],
 "data": [
  ["CO[C@H]1/C=C/O[C@@]2(C)Oc3c(C)c(O)c4c(O)c(c(/C=N/N5CCN(C)CC5)c(O)c4c3C2=O)NC(=O)/C(C)=C\\C=C\\[C@H](C)[C@H](O)[C@@H](C)[C@@H](O)[C@@H](C)[C@H](OC(C)=O)[C@@H]1C [rifampin, reference compound]", "Not met"],
  ["COc1nc2ccc(Br)cc2cc1[C@@H](c1ccccc1)[C@@](O)(CCN(C)C)c1cccc2ccccc12 [Bedaquiline, reference compound]", "Met"],
  ["NNC(=O)c1ccncc1 [isoniazide, isoniazid, reference compound]", "Not met"],
  ["COc1ncc(-c2ccc(Br)cc2)cc1C(c1ccccc1)C(O)(CCN(C)C)c1cccc2ccccc12 (stereo not drawn)", "Not met"],
  ["COc1ncc(-c2ccccc2)cc1C(c1ccccc1)C(O)(CCN(C)C)c1cccc2ccccc12 (stereo not drawn)", "Not met"]
]}

Lab note: next molecule to report on.
Request: Lab note: confirm whether the reported MIC for this molecule is below 0.2 µM, equality not counting. molecule: COc1ncc(-c2ccc(Cl)cc2)cc1C(c1ccccc1)C(O)(CCN(C)C)c1cccc2ccccc12 (stereo not drawn)
Result: Met
